Source listed as paper PMC4336329.

Please respond with reported hERG current change (%, negative = inhibition) at 1uM for every item in the list.
SYSTEM: human ether-à-go-go-related gene (hERG) potassium channel (human)
ASSAY_DETAILS: primary screen, population patch clamp on CHO cells stably expressing hERG; higher = less effect of the substance
The campaign covered roughly 310,000 compounds. About 2,200 (0.71%) showed an effect of 50% or more. Effects have a minus sign here. For the sample, strong results were picked, then their nearest neighbours and some compounds at random.
Numbers only here, please. The scale is %.

Supply recorded hERG current change (%, negative = inhibition) at 1uM for O=C(Oc1c(-c2ccco2)oc2ccccc2c1=O)c1cccnc1 here.
16.2

Identify measured hERG current change (%, negative = inhibition) at 1uM corresponding to CCC1CCCCN1C(=O)c1sc2nc(C)nc(N(CC)CC)c2c1C (stereo not shown)
5.72

Respond only with hERG current change (%, negative = inhibition) at 1uM recorded for CCOC(=O)c1oc2ccccc2c1NC(=O)COc1ccc(F)cc1
12.4

Provide hERG current change (%, negative = inhibition) at 1uM value for the following molecule: COCCCN(C)C1CCN(C(=O)Nc2ccc(F)cc2)CC1
-2.37

Read off the recorded hERG current change (%, negative = inhibition) at 1uM for CN1CCN(NC(=O)CN(C)S(=O)(=O)c2cc(Cl)ccc2Cl)CC1
6.96

Indicate its recorded hERG current change (%, negative = inhibition) at 1uM; the molecule in question is COCCn1ccc2c(OCC(=O)NCCc3ccccc3)cccc2c1=O
0.744

Return hERG current change (%, negative = inhibition) at 1uM (reported value) for this molecule: CCC(=O)N1CCN(c2ccc(NC(=O)COc3ccc(CC)cc3)cc2)CC1
10.9

Quote hERG current change (%, negative = inhibition) at 1uM reported for CCOC(=O)c1ccc(NC(=O)COc2coc(CN3CCc4ccccc43)cc2=O)cc1 please.
8.2

Give the value of hERG current change (%, negative = inhibition) at 1uM reported for the following: CCOCCCN(C)C1CCN(C(=O)c2oc3ccccc3c2NC(=O)c2ccc(F)cc2)CC1
-85.6

Please report the measured hERG current change (%, negative = inhibition) at 1uM for CCOC(=O)Cc1[nH]nc2c1C(c1cc(OC)ccc1OC)C(C#N)=C(N)O2 (stereo not shown)
14.9

----------
SYSTEM: human ether-à-go-go-related gene (hERG) potassium channel (human)
ASSAY_DETAILS: primary screen, population patch clamp on CHO cells stably expressing hERG; higher = less effect of the substance
Out of some 310,000 compounds screened, about 2,200 (0.71%) showed an effect of 50% or more. Effects have a minus sign here. The list comes from a sample in which strong results are over-represented; it also holds close analogues and randomly drawn compounds.
I'd appreciate it if you could supply hERG current change (%, negative = inhibition) at 1uM values for the items below.
Return type: number; implicit unit %.

Read the entry Cc1cc(C)c(S(=O)(=O)N2CCOC2CNC(=O)C(=O)NCCCN2CCCC2=O)c(C)c1 (stereo not drawn) and write its reported hERG current change (%, negative = inhibition) at 1uM.
7.05

Provide measured hERG current change (%, negative = inhibition) at 1uM value, entry: COCCNC(=S)NNC(=O)c1cc(C2CC2)nc2ccccc12
14.8

Consider the compound Cc1[nH]n(-c2ccc([N+](=O)[O-])cc2)c(=O)c1C=NCC1CCCO1 (stereo not drawn) . State its measured hERG current change (%, negative = inhibition) at 1uM.
7.67

// fetch hERG current change (%, negative = inhibition) at 1uM given entry N#Cc1cccc(NC(=O)c2ccc(S(=O)(=O)N3CCOCC3)cc2)c1
0.709

# return recorded hERG current change (%, negative = inhibition) at 1uM for input COc1ccc(OCCN2CCOCC2)cc1
20.7

Read the entry CCOC(=O)c1ccc(NCc2cccnc2)cc1 and write its reported hERG current change (%, negative = inhibition) at 1uM.
8.24

Respond only with hERG current change (%, negative = inhibition) at 1uM recorded for CC(C)OC(=O)COc1cc(O)c2c(=O)cc(-c3ccccc3)oc2c1
10.8

Report measured hERG current change (%, negative = inhibition) at 1uM; entry is CCCCc1cc2c(s1)CCCC/C2=N/O
2.41

Report hERG current change (%, negative = inhibition) at 1uM, nothing else, for this compound: OCC1(CCOc2ccccc2)CCN(Cc2cn[nH]c2-c2ccc(F)cc2)CC1
-46.3

Return value of hERG current change (%, negative = inhibition) at 1uM for input CCOCCCn1c(=NC(=O)c2cccs2)c(C#N)cc2c(=O)n3cccc(C)c3nc21 , no commentary.
-53.9

Query hERG current change (%, negative = inhibition) at 1uM for O=S(=O)(Nc1nc2ccccc2nc1Cl)c1ccc2c(c1)OCCO2
8.99

Name the recorded hERG current change (%, negative = inhibition) at 1uM of the compound listed here: OCC1(CCOc2ccccc2)CCN(Cc2cn[nH]c2-c2ccccc2)CC1
-68.3

Look up and report measured hERG current change (%, negative = inhibition) at 1uM for this entry: CCOC(=O)c1cnc2ccc(OC)cc2c1NCc1ccccc1
-33.4

Supply reported hERG current change (%, negative = inhibition) at 1uM belonging to this compound: CC12CC3(C)CC(C)(C1)CC(C(=O)NCC(=O)O)(C2)C3
19.5

Respond only with hERG current change (%, negative = inhibition) at 1uM recorded for COc1cc(/C=N/Nc2nc3ccccc3[nH]2)cc(Br)c1OCC(=O)N(C)C
0.153

Find the measured hERG current change (%, negative = inhibition) at 1uM of CCOC(=O)c1cnc2c(OC)cccc2c1Nc1ccc2c(c1)OCCO2 and report it.
-3.26

In one line, give reported hERG current change (%, negative = inhibition) at 1uM of the entry O=c1cc(CS(=O)(=O)c2ccccc2)nc(-c2ccncc2)[nH]1 .
11.3

Read the entry CC1CCCCN1CCNC(=O)CCc1nnc2n(Cc3ccccc3)c(=O)c3ccccc3n12 (stereo not drawn) and write its reported hERG current change (%, negative = inhibition) at 1uM.
-8.67

Provide hERG current change (%, negative = inhibition) at 1uM value for the following compound: COc1ccc(Br)cc1C(=O)Nc1cccc(C)c1C
2.14

Quickly give me recorded hERG current change (%, negative = inhibition) at 1uM for CCOC(=O)c1cnc2ccccc2c1NCc1ccco1
-14.7

Fill in reported hERG current change (%, negative = inhibition) at 1uM for this entry: CCOC(=O)c1cnc2ccc(OCC)cc2c1NCc1ccccc1
-12.8

----------
SYSTEM: human ether-à-go-go-related gene (hERG) potassium channel (human)
ASSAY_DETAILS: primary screen, population patch clamp on CHO cells stably expressing hERG; higher = less effect of the substance
The campaign covered roughly 310,000 compounds. About 2,200 (0.71%) showed an effect of 50% or more. The effect is printed as a negative number. The sample holds strong results, similar compounds and a random draw of the others, so the mix is not that of the screen.
Give hERG current change (%, negative = inhibition) at 1uM for every item shown.

Return reported hERG current change (%, negative = inhibition) at 1uM. Input compound: COc1cc(C)nc(N(C)S(=O)(=O)c2ccccc2Cl)n1
7.72%

Specify reported hERG current change (%, negative = inhibition) at 1uM for the compound shown: CCN(CC)CCOc1nnc(-c2ccc(C)cc2)c2ccccc12
-58.4%

# return recorded hERG current change (%, negative = inhibition) at 1uM for entry CCOCCCNC(=O)c1cn(CC)c2ccc(S(=O)(=O)N(C)C3CCCCC3)cc2c1=O
11.3%

Tell me measured hERG current change (%, negative = inhibition) at 1uM for COC(=O)C1C(O)CCC2CN3CCc4c([nH]c5ccccc45)C3CC21 (stereo not shown) please.
1.1%

Please report the measured hERG current change (%, negative = inhibition) at 1uM for Cc1ccccc1N1CCN(CCCN2C(=O)CC(=C(c3ccccc3)c3ccccc3)C2=O)CC1
3.79%

Answer with the recorded hERG current change (%, negative = inhibition) at 1uM for the compound listed here: CCN(CC)CCCNC(=O)c1cn(CC)c2ccc(S(=O)(=O)N3CCc4ccccc4C3)cc2c1=O
1.94%

Identify the reported hERG current change (%, negative = inhibition) at 1uM for the following entry. CCCNc1cc(C)oc(=O)c1C(=O)CC
18.4%

Input C(=N\n1cnnc1)/c1cccs1 , output reported hERG current change (%, negative = inhibition) at 1uM.
5.5%

# return recorded hERG current change (%, negative = inhibition) at 1uM for input CCN(CC)CCOc1nnc(-c2ccc(OC)cc2)c2ccccc12
-25.1%

Give the measured hERG current change (%, negative = inhibition) at 1uM for COC(=O)[C@@H]1[C@H]2C[C@H]3c4[nH]c5ccccc5c4CCN3C[C@@H]2CC[C@@H]1O
-21.3%

----------
Assignment: determine reported hERG current change (%, negative = inhibition) at 1uM for the given molecules.
SYSTEM: human ether-à-go-go-related gene (hERG) potassium channel (human, UniProt Q12809)
Sequence (Q12809 whole entry, looked up): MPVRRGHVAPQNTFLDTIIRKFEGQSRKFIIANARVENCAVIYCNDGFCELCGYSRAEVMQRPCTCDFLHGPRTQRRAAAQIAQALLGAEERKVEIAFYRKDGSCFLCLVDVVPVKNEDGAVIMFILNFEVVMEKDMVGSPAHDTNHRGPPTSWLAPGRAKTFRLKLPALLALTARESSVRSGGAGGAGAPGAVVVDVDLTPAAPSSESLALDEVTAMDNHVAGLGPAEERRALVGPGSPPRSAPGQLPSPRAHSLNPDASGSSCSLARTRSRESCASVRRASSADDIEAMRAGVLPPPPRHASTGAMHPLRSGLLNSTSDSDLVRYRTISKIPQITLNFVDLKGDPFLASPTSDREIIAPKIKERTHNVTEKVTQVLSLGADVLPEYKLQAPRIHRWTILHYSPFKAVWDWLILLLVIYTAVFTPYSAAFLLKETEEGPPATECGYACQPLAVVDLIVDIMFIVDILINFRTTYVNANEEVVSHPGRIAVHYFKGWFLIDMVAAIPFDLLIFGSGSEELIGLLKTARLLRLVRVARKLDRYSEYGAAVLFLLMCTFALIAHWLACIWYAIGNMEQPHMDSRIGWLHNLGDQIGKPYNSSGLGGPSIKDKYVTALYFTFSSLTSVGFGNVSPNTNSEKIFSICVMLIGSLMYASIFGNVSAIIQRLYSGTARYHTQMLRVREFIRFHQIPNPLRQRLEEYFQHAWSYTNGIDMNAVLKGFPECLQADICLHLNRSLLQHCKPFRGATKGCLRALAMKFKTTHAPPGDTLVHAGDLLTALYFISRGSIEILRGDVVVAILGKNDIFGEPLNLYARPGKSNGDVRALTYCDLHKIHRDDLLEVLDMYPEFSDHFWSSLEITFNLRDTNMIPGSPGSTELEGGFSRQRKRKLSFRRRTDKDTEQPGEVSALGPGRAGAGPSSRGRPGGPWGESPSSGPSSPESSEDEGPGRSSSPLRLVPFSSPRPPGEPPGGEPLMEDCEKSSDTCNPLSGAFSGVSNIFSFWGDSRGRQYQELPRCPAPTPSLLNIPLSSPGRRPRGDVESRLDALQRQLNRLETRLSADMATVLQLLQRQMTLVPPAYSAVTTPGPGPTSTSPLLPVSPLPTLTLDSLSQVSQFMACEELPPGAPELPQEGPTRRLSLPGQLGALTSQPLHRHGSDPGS
ASSAY_DETAILS: primary screen, population patch clamp on CHO cells stably expressing hERG; higher = less effect of the substance
Screen size: about 310,000 compounds; about 2,200 (0.71%) showed an effect of 50% or more. Effects have a minus sign here. Only a selection was taken, and strong results are over-represented in it overall.
Numeric answer only, unit % assumed.

Name the recorded hERG current change (%, negative = inhibition) at 1uM of the molecule listed here: CCN1CCN(c2ccc(NC(=O)c3ccc4c(c3)OCO4)cc2)CC1
-16.7

For the molecule Cc1ccc2nc3c(cc(C(=O)NCCN4CCOCC4)c(=N)n3CCCN3CCOCC3)c(=O)n2c1 , give its reported hERG current change (%, negative = inhibition) at 1uM.
5.89

Find the measured hERG current change (%, negative = inhibition) at 1uM of Cc1ccc2nc3c(cc(C(=O)NCCc4ccccc4)c(=N)n3CCN3CCOCC3)c(=O)n2c1 and report it.
-82.9

Annotate the molecule CN1C(=O)CC(N2CCN(c3ccc(Cl)c(Cl)c3)CC2)C1=O (centres unmarked) with its measured hERG current change (%, negative = inhibition) at 1uM.
1.54

Read off the recorded hERG current change (%, negative = inhibition) at 1uM for O=C(CSc1cn(Cc2ccccc2)c2ccccc12)N1CCOCC1
-4.92
